# testProtocol: Cell Viability - LYMP2-006 (AID 978);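 note: cells exposed to compound for 24 hours; nearly all actives have a fitted effect of over 60% in size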
# experimentalSetup: LYMP2-006 lymphoblastoid cell viability, qHTS; series mostly up to 92.2 µM
Records with an inconclusive call do not appear. Activity calls are given as the source filed them. Calls come from the whole dose curve; as a rule, active = well fitted cell-killing curve with a large enough effect; inconclusive = small, poorly fitted or top-dose-only effect; inactive = flat fitted curve, though single readings scatter.
assayReadout: outcome

Answered cases to consult:
compound	outcome
ClP(Cl)(Cl)(Cl)Cl	inactive
Nc1ncc([N+](=O)[O-])s1	inactive
O=[N+]([O-])CCO	inactive
CCCCCCCCCCCCCl	inactive
O=[N+]([O-])c1ccc(Cl)cc1	inactive

Req: # get_value(readout='outcome', item= CCCCC(CC)COC(=O)c1ccc(C(=O)OCC(CC)CCCC)c(C(=O)OCC(CC)CCCC)c1 (stereo unspecified) )
Resp: inactive

Req: # get_value(readout='outcome', item= Clc1cccc(Cl)c1 )
Resp: inactive

Req: # get_value(readout='outcome', item= CC(C)CON=O )
Resp: inactive

Req: # get_value(readout='outcome', item= CN(C)C(=O)Nc1ccc(Cl)cc1 )
Resp: inactive

Req: # get_value(readout='outcome', item= ClCc1ccccn1 )
Resp: inactive
